B1: Ankyrin repeat and SAM domain-containing protein 6, residues 774 to 836; numbered along this chain, Q68DC2 (parent)
chain: DEDELTGILKKLSLEKYQPIFEEQEVDMEAFLTLTDGDLKELGIKTDGSRQQILAAISELNAG

variants of: B1; assay: abundance fitness (aPCA) (normalised: wild type 0, dead -1); higher = more abundant; growth selection in yeast, the domain comes from the species named; conditions: Homo sapiens
Parameter measured: abundance fitness

abundance fitness measured on G37L = -0.049

abundance fitness measured on M28A = -0.055

abundance fitness measured on I53N = -0.451

abundance fitness measured on L60Y = 0.048

abundance fitness measured on D3T = -0.118

abundance fitness measured on V26E = -0.532

abundance fitness measured on E4C = -0.016
